Test system: intestinal alkaline phosphatase [Mus musculus]
ASSAY NOTES: activators of mouse IAP, confirmation, biochemical, luminescence, single concentration (AID 434970)
MEASUREMENT CONDITIONS: purified mouse IAP, CDP-Star luminescence, 30 min, at 10 µM; measured here: IAP activation factor, stronger effect = higher value
Among all 11,000 compounds or so, about 310 (2.8%) were called active. Many of the other results were omitted from the sample, so actives are more common in it than they were.
MEASURE: activation factor
Just the number, please, no unit after it.

Please report the recorded activation factor for Cc1nc2cc(F)ccc2n1C1CCN(Cc2nnnn2CCc2ccccc2)CC1 . 1.13

Please report the recorded activation factor for CCOC(=O)c1ccc(N2C(=O)CC(N3CC=C(c4ccc(F)cc4)CC3)C2=O)cc1 (stereo not given) . 0.996

Please report the recorded activation factor for CC(CO)(CO)N=Cc1c(O)n(-c2cccc3ccccc23)c(=O)[nH]c1=O . 1.12

Please report the recorded activation factor for CN1CCN(Cc2cc(C(C)(C)C)c(O)c(C(C)(C)C)c2)CC1 . 0.944

Please report the recorded activation factor for CCc1ccc(N2C(=O)NC(=O)C(Cc3ccc(OC)cc3OC)C2=O)cc1 (stereo not given) . 1.06

---

Here the recorded activity change, negative = activation is given for each entry.
Test system: intestinal alkaline phosphatase [Mus musculus]
ASSAY NOTES: activators of mouse IAP, confirmation, biochemical, luminescence, single concentration (AID 434970)
MEASUREMENT CONDITIONS: purified mouse IAP, CDP-Star luminescence, 30 min, at 10 µM; stronger effect = lower value
In all, about 11,000 compounds went through this assay and about 310 (2.8%) were called active. Only a selection was taken, and actives are over-represented in it overall.

Previously resolved entries follow.
MOLECULE: CCOC(=O)c1c(-n2c(C)cc(C=C3C(=O)NC(=S)NC3=O)c2C)sc2c1CCCC2
OBSERVED RESULT: 35.1% (inactive)
--
MOLECULE: COc1ccc(P2(=O)Nc3ccccc3N2)cc1
OBSERVED RESULT: 4.95% (inactive)
--
MOLECULE: CSc1ccc(C(=O)C(C)(C)N2CCOCC2)cc1
OBSERVED RESULT: 3.5% (inactive)

Please report the recorded activity change, negative = activation for CCOP(=O)(C(NC(=O)c1ccccc1Cl)=C(Cl)Cl)c1ccccc1 (centres undefined) . -6.55% (inactive)

Please report the recorded activity change, negative = activation for CCc1ccc(N2C(=O)NC(=O)C(Cc3ccc(OC)cc3OC)C2=O)cc1 (centres undefined) . -5.6% (inactive)

Please report the recorded activity change, negative = activation for O=C(Cc1ccccc1)Oc1ccccc1N1C(=O)CCC1=O . -7.1% (inactive)

---

Test system: intestinal alkaline phosphatase [Mus musculus]
ASSAY NOTES: activators of mouse IAP, confirmation, biochemical, luminescence, single concentration (AID 434970)
MEASUREMENT CONDITIONS: purified mouse IAP, CDP-Star luminescence, 30 min, at 10 µM; measured here: IAP activation factor, stronger effect = higher value
Screen size: about 11,000 compounds; about 310 (2.8%) were called active. Many of the other results were omitted from the sample, so actives are more common in it than they were.
Assign 1 (yes) to entries whose activation factor meets or exceeds 1; assign 0 (no) to the rest.

COMPOUND: CC1(C)CSC(Nc2ccc(F)c(Cl)c2)=N1
ANSWER LABEL: 0 (no)

Confirm if activation factor reported for the compound Clc1ccc(C(c2ccc(Cl)cc2)n2cc[n+](CC(OCc3ccc(Cl)cc3Cl)c3ccc(Cl)cc3Cl)c2)cc1 (stereo not given) is 1 or above. 1 (yes)

Confirm if activation factor reported for the compound CSc1ccc(C(=O)C(C)(C)N2CCOCC2)cc1 is 1 or above. 0 (no)

Confirm if activation factor reported for the compound CCOC(=O)c1c(-n2c(C)cc(C=C3C(=O)NC(=S)NC3=O)c2C)sc2c1CCCC2 is 1 or above. 0 (no)

Confirm if activation factor reported for the compound O=C(Cc1ccccc1)Oc1ccccc1N1C(=O)CCC1=O is 1 or above. 1 (yes)

---

Tested on: intestinal alkaline phosphatase [Mus musculus]
ASSAY NOTES: activators of mouse IAP, confirmation, biochemical, luminescence, single concentration (AID 434970)
MEASUREMENT CONDITIONS: purified mouse IAP, CDP-Star luminescence, 30 min, at 10 µM; measured here: IAP activation factor, stronger effect = higher value
Hit rate of the full screen: of about 11,000 compounds, about 310 (2.8%) were called active. This is one part of a sample in which actives are shown more often than they occur.
MEASURE: activation factor

Previously resolved entries follow.
COMPOUND: COc1ccc(-n2c(=O)[nH]c3ccccc3c2=O)c(OC)c1
activation factor: 1.08

COMPOUND: Cc1ccc(CN2C3CCCC2CC(NC(=S)NCc2ccccc2)C3)cc1 (centres undefined)
activation factor: 2.88

Kindly state the measured activation factor obtained for Cc1ccc(CN2C3CCCC2CC(NC(=O)Nc2cccc(F)c2)C3)cc1 (centres undefined) with intestinal alkaline phosphatase [Mus musculus]. 4.48

Kindly state the measured activation factor obtained for Cc1cc(C)cc(NC(=S)NC2CC3CCCC(C2)N3Cc2cccs2)c1 (centres undefined) with intestinal alkaline phosphatase [Mus musculus]. 2.5

---

Tested on: intestinal alkaline phosphatase [Mus musculus]
ASSAY NOTES: activators of mouse IAP, confirmation, biochemical, luminescence, single concentration (AID 434970)
MEASUREMENT CONDITIONS: purified mouse IAP, CDP-Star luminescence, 30 min, at 10 µM; stronger effect = lower value
In all, about 11,000 compounds went through this assay and about 310 (2.8%) were called active. This is one part of a sample in which actives are shown more often than they occur.
Here the recorded activity change, negative = activation is given for each entry.
Output spec: scalar in %, unitless text.

CHEM SMILES: O=C(Cn1cnc2ccccc2c1=O)NCCC(=O)N1CCC2(CC1)OCCO2
activity change, negative = activation (%): -9.25
//
CHEM SMILES: CC(CO)(CO)N=Cc1c(O)n(-c2cccc3ccccc23)c(=O)[nH]c1=O
activity change, negative = activation (%): -12.2

Okay, now this compound:
Please report the recorded activity change, negative = activation for COc1ccc(-n2c(=O)[nH]c3ccccc3c2=O)c(OC)c1 . -7.55
